Molecular target: T1, HLA-DQ2.5 on HLA-DQ2.5 positive PBMC-B cells (human, UniProt P01909 24-254; P01920 33-261)
T1 construct: also called DQ2.5 + PBMC; HLA-DQ2.5+PBMC B cell
T1 MHC II alpha: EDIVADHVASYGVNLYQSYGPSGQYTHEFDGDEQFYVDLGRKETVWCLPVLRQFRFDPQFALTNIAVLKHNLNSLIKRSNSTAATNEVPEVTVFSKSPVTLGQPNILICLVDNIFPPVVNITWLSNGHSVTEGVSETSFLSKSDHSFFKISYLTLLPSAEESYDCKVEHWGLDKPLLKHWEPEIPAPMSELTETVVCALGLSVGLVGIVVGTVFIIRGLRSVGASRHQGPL
T1 MHC II beta: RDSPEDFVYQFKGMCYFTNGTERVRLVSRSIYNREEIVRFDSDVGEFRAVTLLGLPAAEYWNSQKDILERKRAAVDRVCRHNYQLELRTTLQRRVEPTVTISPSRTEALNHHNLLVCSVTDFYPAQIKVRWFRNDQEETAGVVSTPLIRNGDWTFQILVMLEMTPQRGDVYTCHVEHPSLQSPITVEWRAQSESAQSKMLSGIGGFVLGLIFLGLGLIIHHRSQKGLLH
Assay: FACS
value-kind: FIG. 30 FACS value (IC17=0, DQN0139bb=100)
Please respond with just the number, no unit label.

Query: Give the reported FIG. 30 FACS value (IC17=0, DQN0139bb=100) for this binder. DQN0324hh (antibody, human IgG1, kappa, V domains shown, also called DQN0324Lh) VH: QSLEESGGDLVKPGASLALTCTASGFSLINNYYMCWVRQAPGKGLEWIACIYAGLGGWTYYASWAKGRFTISKTSSTTVTLQMSSLTVADAATYFCARAATTYYHFNLWGPGTLVTVSS VL: AVVLTQTESPVSAAVGDTVTIKCQASQSIGNALAWYQQKPGQPPKLLIYDASTLASGVPSRFKGSGSGTQFTLTISDLECADAATYYCQSYDYGSSADTYTFGGGTKVEIKR
Reply: 0.3
